biological target: the molecule itself; assay: MST; Alexa Fluor 488 labelled protein kept constant (SAMwt 70 nM, SAMlg 60 nM), total protein varied (SAMwt 1.1-824 µM, SAMlg 0.2-250 µM); standard buffer pH 6.4, room temperature; fit to a monomer-dimer equilibrium; dimer to monomers
measurementName: Kd
Lab note: write values as number then unit, every time.

Give the reported Kd for this protein. SLy1 SAM domain construct SAMlg (SLy1 residues G249-E321 preceded by a glycine-proline tag) (domain or fragment, mouse, glycine-proline left from the tag after PreScission cleavage; SLy1 (SASH3), murine, UniProtKB Q8K352, residues 249-321; 75 residues; In MST 60 nM of the protein carried amine-reactive Alexa Fluor 488; For DOSY the protein was 15N labelled; also called N-terminally extended SLy1 SAM domain construct; source: E. coli BL21(DE3), GST fusion, purified (Glutathione Sepharose, PreScission cleavage, …)) GPGKRPKPKTLHELLERIGLEEHTSTLLLNGYQTLEDFKELRETHLNELNIMDPQHRAKLLTAAELLLDYDTGSE
5.4 µM
